Activity for assorted compounds
- Test system: Rattus norvegicus
- Protocol: Toxicity in anaesthetized-Wistar rat assessed as Q-T ECG interval at 40 mg/kg, ip after 15 mins (reference value: 79.4 +/- 1.270 ms)
- Assay type: organism-based
- Parameters: dose 40 mg/kg, route intraperitoneal
- Test context: in vivo, 0.25 h
Observed property: Activity (min)

Compound: CN1CCN(CC(O)CN2C(=O)/C(=C\c3ccccc3)S/C2=N\c2ccccc2)CC1 (centres undefined)
Measurement target: Rattus norvegicus
Observed property: Activity
Unit label: min
Result: 74.8
//
Compound: CCN(CC)CC(O)CN1C(=O)/C(=C\c2ccccc2)S/C1=N\c1ccccc1 (centres undefined)
Measurement target: Rattus norvegicus
Observed property: Activity
Unit label: min
Result: 81.4
//
Compound: O=C1/C(=C\c2ccccc2)S/C(=N\c2ccccc2)N1CC(O)CN1CCN(c2ccccc2)CC1 (centres undefined)
Measurement target: Rattus norvegicus
Observed property: Activity
Unit label: min
Result: 73.9
//
Compound: O=C1/C(=C\c2ccccc2)S/C(=N\c2ccccc2)N1CC(O)CN1CCCC1 (centres undefined)
Measurement target: Rattus norvegicus
Observed property: Activity
Unit label: min
Result: 71.2

----------
- Tested on: Rattus norvegicus
- Protocol: Toxicity in anaesthetized-Wistar rat assessed as QRS ECG interval at 40 mg/kg, ip after 60 mins (reference value: 19.3 +/- 0.873 ms)
- Type: organism-based
- Design: dose 40 mg/kg, route intraperitoneal
- Test context: in vivo, 1 h
Observed property: Activity

Compound: O=C1/C(=C\c2ccccc2)S/C(=N\c2ccccc2)N1CC(O)CN(c1ccccc1)c1ccccc1 (stereo unspecified)
Measurement target: Rattus norvegicus
Observed property: Activity
Result: 20.4 min

Compound: O=C1/C(=C\c2ccccc2)S/C(=N\c2ccccc2)N1CC(O)CN1CCNCC1 (stereo unspecified)
Measurement target: Rattus norvegicus
Observed property: Activity
Result: 22.4 min

Compound: O=C1/C(=C\c2ccccc2)S/C(=N\c2ccccc2)N1CC(O)CN1CCN(c2ccccc2)CC1 (stereo unspecified)
Measurement target: Rattus norvegicus
Observed property: Activity
Result: 24.7 min

Compound: CC(C)N1CCN(CC(O)CN2C(=O)/C(=C\c3ccccc3)S/C2=N\c2ccccc2)CC1 (stereo unspecified)
Measurement target: Rattus norvegicus
Observed property: Activity
Result: 24.8 min

Compound: CCCN(CCC)CC(O)CN1C(=O)/C(=C\c2ccccc2)S/C1=N\c1ccccc1 (stereo unspecified)
Measurement target: Rattus norvegicus
Observed property: Activity
Result: 22.5 min

Compound: O=C1/C(=C\c2ccccc2)S/C(=N\c2ccccc2)N1CC(O)CN1CCN(Cc2ccccc2)CC1 (stereo unspecified)
Measurement target: Rattus norvegicus
Observed property: Activity
Result: 23.7 min

Compound: O=C1/C(=C\c2ccccc2)S/C(=N\c2ccccc2)N1CC(O)CN1CCCC1 (stereo unspecified)
Measurement target: Rattus norvegicus
Observed property: Activity
Result: 20.6 min

Compound: O=C1/C(=C\c2ccccc2)S/C(=N\c2ccccc2)N1CC(O)CN1CCCCC1 (stereo unspecified)
Measurement target: Rattus norvegicus
Observed property: Activity
Result: 22.6 min

Compound: O=C1/C(=C\c2ccccc2)S/C(=N\c2ccccc2)N1CC(O)CN1CCC(C(O)(c2ccccc2)c2ccccc2)CC1 (stereo unspecified)
Measurement target: Rattus norvegicus
Observed property: Activity
Result: 22.5 min

Compound: O=C1/C(=C\c2ccccc2)S/C(=N\c2ccccc2)N1CC(O)CN1CCOCC1 (stereo unspecified)
Measurement target: Rattus norvegicus
Observed property: Activity
Result: 23.7 min

Compound: CCN(CC)CC(O)CN1C(=O)/C(=C\c2ccccc2)S/C1=N\c1ccccc1 (stereo unspecified)
Measurement target: Rattus norvegicus
Observed property: Activity
Result: 21.4 min

----------
Examples of molecules with documented Activity follow.
- Test system: Rattus norvegicus
- Protocol: Toxicity in […] normotensive Wistar rat assessed as mean arterial pressure at 40 mg/kg, ip measured immediately at 0 min (reference value: 94.21 +/- 2.065 mmHg)
- Type: organism-based, Artery
- Design: dose 40 mg/kg, route intraperitoneal
- Test context: in vivo, 0 h

Molecule: CCCN(CCC)CC(O)CN1C(=O)/C(=C\c2ccccc2)S/C1=N\c1ccccc1 (stereo not drawn)
Unit label: mmHg
Activity: 95.41
//
Molecule: CCN(CC)CC(O)CN1C(=O)/C(=C\c2ccccc2)S/C1=N\c1ccccc1 (stereo not drawn)
Unit label: mmHg
Activity: 91.39
//
Molecule: O=C1/C(=C\c2ccccc2)S/C(=N\c2ccccc2)N1CC(O)CN1CCCC1 (stereo not drawn)
Unit label: mmHg
Activity: 93.02
//
Molecule: CCCCN(CCCC)CC(O)CN1C(=O)/C(=C\c2ccccc2)S/C1=N\c1ccccc1 (stereo not drawn)
Unit label: mmHg
Activity: 95.56
//
Molecule: O=C1/C(=C\c2ccccc2)S/C(=N\c2ccccc2)N1CC(O)CN(c1ccccc1)c1ccccc1 (stereo not drawn)
Unit label: mmHg
Activity: 94.09
//
Molecule: O=C1/C(=C\c2ccccc2)S/C(=N\c2ccccc2)N1CC(O)CN1CCCCC1 (stereo not drawn)
Unit label: mmHg
Activity: 94.65
//
Molecule: O=C1/C(=C\c2ccccc2)S/C(=N\c2ccccc2)N1CC(O)CN1CCN(C2CCCCC2)CC1 (stereo not drawn)
Unit label: mmHg
Activity: 93.99
//
Molecule: CC(C)N1CCN(CC(O)CN2C(=O)/C(=C\c3ccccc3)S/C2=N\c2ccccc2)CC1 (stereo not drawn)
Unit label: mmHg
Activity: 92.09

----------
# Activity annotations
- System: Rattus norvegicus
- Protocol: Toxicity in anaesthetized-Wistar rat assessed as Q-T ECG interval at 40 mg/kg, ip after 60 mins (reference value: 79.7 +/- 0.965 ms)
- Format: organism-based
- Design: dose 40 mg/kg, route intraperitoneal
- Test context: in vivo, 1 h
Observed property: Activity (ms)

Molecule: CCCN(CCC)CC(O)CN1C(=O)/C(=C\c2ccccc2)S/C1=N\c1ccccc1 (configuration not stated)
Measurement target: Rattus norvegicus
Result: 72.7
--
Molecule: O=C1/C(=C\c2ccccc2)S/C(=N\c2ccccc2)N1CC(O)CN1CCN(C2CCCCC2)CC1 (configuration not stated)
Measurement target: Rattus norvegicus
Result: 71.2
--
Molecule: O=C1/C(=C\c2ccccc2)S/C(=N\c2ccccc2)N1CC(O)CN1CCCC1 (configuration not stated)
Measurement target: Rattus norvegicus
Result: 70.9
--
Molecule: CC(C)N1CCN(CC(O)CN2C(=O)/C(=C\c3ccccc3)S/C2=N\c2ccccc2)CC1 (configuration not stated)
Measurement target: Rattus norvegicus
Result: 77.4
--
Molecule: O=C1/C(=C\c2ccccc2)S/C(=N\c2ccccc2)N1CC(O)CN1CCCCC1 (configuration not stated)
Measurement target: Rattus norvegicus
Result: 71.8
--
Molecule: O=C1/C(=C\c2ccccc2)S/C(=N\c2ccccc2)N1CC(O)CN1CCC(C(O)(c2ccccc2)c2ccccc2)CC1 (configuration not stated)
Measurement target: Rattus norvegicus
Result: 72.7
--
Molecule: O=C1/C(=C\c2ccccc2)S/C(=N\c2ccccc2)N1CC(O)CN1CCNCC1 (configuration not stated)
Measurement target: Rattus norvegicus
Result: 82.1

// provenance: ChEMBL document CHEMBL3232945
